target: glucagon receptor (human, UniProt P47871 26-477); test: cell-based or functional assay
Sequence (P47871 26-477): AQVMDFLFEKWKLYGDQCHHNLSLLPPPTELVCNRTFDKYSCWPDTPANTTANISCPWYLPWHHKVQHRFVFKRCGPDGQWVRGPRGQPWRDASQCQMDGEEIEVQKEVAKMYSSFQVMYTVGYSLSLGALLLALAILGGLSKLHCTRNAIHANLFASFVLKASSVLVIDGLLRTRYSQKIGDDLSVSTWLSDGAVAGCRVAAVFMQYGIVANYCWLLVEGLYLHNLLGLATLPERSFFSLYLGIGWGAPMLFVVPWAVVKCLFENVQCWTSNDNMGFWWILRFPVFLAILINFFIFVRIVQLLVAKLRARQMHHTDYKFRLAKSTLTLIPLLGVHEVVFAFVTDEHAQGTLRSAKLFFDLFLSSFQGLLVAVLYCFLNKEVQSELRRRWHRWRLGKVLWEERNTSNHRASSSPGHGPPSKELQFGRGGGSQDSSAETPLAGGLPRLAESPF
No end group written: not given here.
REPORTED_ENDPOINT: EC50 (cAMP luciferase reporter) (µM)
Give bare numbers, in µM.

Please review the following examples before continuing.
BINDER	MEAS_VALUE
HSQGTFTSDKSKYLDEQAAKEFIC(PEG 40 kDa)WLLDT-NH2 (not fully specified; also: further groups not given here) [Glucagon Analog 79]	240
HSQGTFTSDKSKYLDEQAAKEFICWLLDE-NH2 (not fully specified; also: further groups not given here) [Glucagon Analog 82]	14
HAQGTFTSDKSKYLDERAAQDFVC(PEG 40 kDa)WLLDT-NH2 (also: other non-coded residues as, not given here) [Glucagon Analog 81]	37
HSQGTFTSDKSKYLDEQAAKEFIC(PEG 40 kDa)WLLDTGG-NH2 (not fully specified; also: further groups not given here) [Glucagon Analog 78]	140

Okay, now this binder:
Lookup: Name the recorded EC50 (cAMP luciferase reporter) for HSQGTFTSDKSKYLDEQAAKEFICWLLDTE-NH2 (not fully specified; also: further groups not given here) [Glucagon Analog 83] .
Found: 28
